FYI, the data here is from paper PMC7317212.

# Target or system: mGAT3 (Mus musculus, UniProt P31649)
# Construct: expressed in transfected cells; host or cells: HEK293
# Sequence (P31649 whole entry): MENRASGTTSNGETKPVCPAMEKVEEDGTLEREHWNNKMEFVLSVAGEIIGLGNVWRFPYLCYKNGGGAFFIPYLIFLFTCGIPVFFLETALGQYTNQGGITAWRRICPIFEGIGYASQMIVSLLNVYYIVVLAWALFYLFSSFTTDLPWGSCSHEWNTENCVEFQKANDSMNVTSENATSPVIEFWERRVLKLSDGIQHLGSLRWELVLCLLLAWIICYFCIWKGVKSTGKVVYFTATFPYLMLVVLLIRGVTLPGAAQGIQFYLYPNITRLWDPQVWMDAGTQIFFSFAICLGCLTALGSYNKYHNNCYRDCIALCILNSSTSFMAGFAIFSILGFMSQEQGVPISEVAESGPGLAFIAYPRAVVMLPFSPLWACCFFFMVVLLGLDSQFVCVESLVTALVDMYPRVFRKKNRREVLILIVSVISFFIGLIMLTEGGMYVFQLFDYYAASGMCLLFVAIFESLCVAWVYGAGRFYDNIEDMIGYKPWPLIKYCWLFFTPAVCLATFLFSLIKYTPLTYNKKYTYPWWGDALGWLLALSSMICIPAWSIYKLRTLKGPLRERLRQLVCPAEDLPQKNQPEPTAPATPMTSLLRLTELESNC
# Experiment notes: [^3H]GABA uptake assay, HEK293 cells expressing mGAT3
# Assay type: cell-based
# Measurement context: HEK293; in presence of 100 μM compound
Endpoint name: remaining activity at 100 µM (%)
Hi! Could you send only the number? It should be in %, unit omitted.

For orientation, consider the following solved cases.
{"Molecule": "CCOC(=O)c1ccc(C(OCCN2CCCC(C(=O)OCC)C2)(c2ccc(OC)cc2)c2ccc(OC)cc2)cc1 (racemic)", "Target or system": "mGAT3 (Mus musculus, UniProt P31649)", "Endpoint name": "remaining activity at 100 µM", "Measured": 79}
{"Molecule": "CCOC(=O)C1CCCN(CCOC(c2ccc(CNCCCC(=O)O)cc2)(c2ccc(OC)cc2)c2ccc(OC)cc2)C1 (racemic)", "Target or system": "mGAT3 (Mus musculus, UniProt P31649)", "Endpoint name": "remaining activity at 100 µM", "Measured": 59.3}
{"Molecule": "CCOC(=O)C1CCCN(CCOC(c2ccc(CNC(C)(C)C(=O)OCC)cc2)(c2ccc(OC)cc2)c2ccc(OC)cc2)C1 (racemic)", "Target or system": "mGAT3 (Mus musculus, UniProt P31649)", "Endpoint name": "remaining activity at 100 µM", "Measured": 49.3}
{"Molecule": "COc1ccc(C(OCCN2CCCC(C(=O)O)C2)(c2ccc(OC)cc2)c2ccc(S(=O)(=O)N(C)C)cc2)cc1 (racemic)", "Target or system": "mGAT3 (Mus musculus, UniProt P31649)", "Endpoint name": "remaining activity at 100 µM", "Measured": 77.1}
{"Molecule": "COc1ccc(C(OCCN2CCCC(C(=O)O)C2)(c2ccc(CNC(C)(C)C(=O)O)cc2)c2ccc(OC)cc2)cc1 (racemic)", "Target or system": "mGAT3 (Mus musculus, UniProt P31649)", "Endpoint name": "remaining activity at 100 µM", "Measured": 61.1}
{"Molecule": "COc1ccc(C(OCCN2CCCC(C(=O)O)C2)(c2ccc(CO)cc2)c2ccc(OC)cc2)cc1 (racemic)", "Target or system": "mGAT3 (Mus musculus, UniProt P31649)", "Endpoint name": "remaining activity at 100 µM", "Measured": 58.7}

Input line: Notebook entry, mGAT3 (Mus musculus, UniProt P31649) assay: remaining activity at 100 µM of CCOC(=O)C1CCCN(CCOC(C(=O)OC)(c2ccc(OC)cc2)c2ccc(OC)cc2)C1 (racemic) = ?
Output line: 64.1
